The reported measurements were obtained from PubChem BioAssay (Tox21).

Assay: qHTS assay to test for compound auto fluorescence at 590 nm (red) in HEK293 cells (AID 720679)
Details: red autofluorescence 540/590 nm; series mostly up to 91.3 µM
Activity calls are given as the source filed them. Calls follow the shape of the dose curve; as a rule, active = well fitted curve in the direction sought with a large enough effect in the repeat runs; inconclusive = weak or mixed curves; inactive = flat fitted curve, though single readings scatter.
property_measured: outcome

Consider the following illustrative entries.
{"columns": ["compound", "outcome"],
 "data": [
  ["Cc1cc(O)ccc1Cl", "inactive"],
  ["C[C@H]1C(=O)O[C@@H]2CCN3CC=C(COC(=O)[C@](C)(O)[C@]1(C)O)[C@H]23", "inactive"],
  ["CCSC(=O)N1CCCCCC1", "inactive"],
  ["Nc1nc(N)nc(NC2CC2)n1", "inactive"],
  ["Cl[C@H]1OCCO[C@@H]1Cl", "inactive"],
  ["C=C(C)C(=O)OCC(CC)CCCC (stereo not drawn)", "inactive"]
]}

Task item: Look up outcome of Cl/C=C/Cl and report it.
Reply: inactive

Task item: Look up outcome of CN(C)NC(=O)CCC(=O)O and report it.
Reply: inactive

---

Test: qHTS assay to identify small molecule agonists of the retinoic acid receptor (RAR) signaling pathway (AID 1159553)
Conditions: C3RL4 RARE luciferase reporter, agonist, 6 h; series mostly up to 73.3 µM
Results filed as inconclusive are left out. The source made the active and inactive calls. The call rests on the fitted dose curve; in most records, active means well fitted activation curve with a large enough effect in the repeat runs; inconclusive means weak or mixed curves, or effect the other way; inactive means no such curve, though single readings can be large or run the other way.
property_measured: outcome

Consider the following illustrative entries.
{"columns": ["molecule", "outcome"],
 "data": [
  ["Oc1ccc(Cl)cc1", "inactive"],
  ["CN(C)CCC#N", "inactive"],
  ["C=CCN=C=S", "inactive"],
  ["O=C(O)Cc1ccccc1", "inactive"]
]}

Task item: Look up outcome of Cc1cc(Cl)ccc1OC(C)C(=O)O (stereo unspecified) and report it.
Reply: inactive

Task item: Look up outcome of Nc1ncc([N+](=O)[O-])s1 and report it.
Reply: inactive

Task item: Look up outcome of C[C@]12CC[C@H](O)CC1=CC[C@@H]1[C@@H]2CC[C@]2(C)C(=O)CC[C@@H]12 and report it.
Reply: inactive

Task item: Look up outcome of Cc1ccc(N=C=O)cc1N=C=O and report it.
Reply: inactive

Task item: Look up outcome of CC(C)c1cccc(C(C)C)c1O and report it.
Reply: inactive

---

Biological target: Progesterone receptor (Homo sapiens)
Assay: qHTS assay to identify small molecule antagonists of the progesterone receptor (PR) signaling pathway (AID 1346795)
Conditions: PR-UAS-bla HEK293T, beta-lactamase FRET ratio, 16 h; series mostly up to 92.4 µM
Results filed as inconclusive are left out. Activity calls are given as the source filed them. The call rests on the fitted dose curve; in most records, active means well fitted inhibition curve with a large enough effect in the signal ratio in the repeat runs (not every such curve was filed as active); inconclusive means weak or mixed curves; inactive means flat fitted curve, though single readings scatter; the % refers to the signal ratio.
property_measured: outcome

{"columns": ["compound", "observed_value"],
 "data": [
  ["N#Cc1ccccn1", "inactive"],
  ["Cc1ccc(O)c(C)c1", "inactive"],
  ["CC(C)CCCCCCOC(=O)c1ccccc1C(=O)OCCCCCCC(C)C", "inactive"],
  ["CN(C)C(=O)Nc1cccc(C(F)(F)F)c1", "inactive"],
  ["Cc1cccc(N)c1C", "inactive"],
  ["O=C(O)CCCc1ccc(N(CCCl)CCCl)cc1", "inactive"]
]}

Task item: Look up outcome of O=[N+]([O-])c1cc([As](=O)(O)O)ccc1O and report it.
Reply: inactive

Task item: Look up outcome of ClCCOCCCl and report it.
Reply: inactive

Task item: Look up outcome of CCSC(=O)N1CCCCCC1 and report it.
Reply: inactive

Task item: Look up outcome of FC(F)(F)c1ccc(Cl)cc1 and report it.
Reply: inactive

Task item: Look up outcome of CNCC(O)c1ccc(O)cc1 (configuration not stated) and report it.
Reply: inactive

Task item: Look up outcome of CC(C)(C)C(=O)CCl and report it.
Reply: inactive

Task item: Look up outcome of CN(C)NC(=O)CCC(=O)O and report it.
Reply: inactive

Task item: Look up outcome of CNc1cnn(-c2cccc(C(F)(F)F)c2)c(=O)c1Cl and report it.
Reply: inactive

Task item: Look up outcome of N#CN=C(N)N and report it.
Reply: inactive

Task item: Look up outcome of Nc1cc(Cl)cc(Cl)c1 and report it.
Reply: inactive

Task item: Look up outcome of Nc1ncc([N+](=O)[O-])s1 and report it.
Reply: inactive

Task item: Look up outcome of Cc1cccc(C)c1NC(=O)CN1CCCC1=O and report it.
Reply: inactive

Task item: Look up outcome of NNc1ccccc1 and report it.
Reply: inactive

Task item: Look up outcome of Cc1cccc(N)c1 and report it.
Reply: inactive

Task item: Look up outcome of Sc1ccccc1 and report it.
Reply: inactive

Task item: Look up outcome of CC(=O)C1CCOC1=O (configuration not stated) and report it.
Reply: inactive

Task item: Look up outcome of C=CC(=O)OCC(CC)CCCC (configuration not stated) and report it.
Reply: inactive

Task item: Look up outcome of Cc1cccc(C)c1N and report it.
Reply: inactive

Task item: Look up outcome of Cc1ccccc1N and report it.
Reply: inactive

Task item: Look up outcome of COC(C)(C)CCCC(C)C/C=C/C(C)=C/C(=O)OC(C)C (configuration not stated) and report it.
Reply: inactive

---

Target: Nuclear receptor subfamily 1 group I member 3 (Homo sapiens) (UniProt Q14994)
Sequence (Q14994 whole entry, looked up): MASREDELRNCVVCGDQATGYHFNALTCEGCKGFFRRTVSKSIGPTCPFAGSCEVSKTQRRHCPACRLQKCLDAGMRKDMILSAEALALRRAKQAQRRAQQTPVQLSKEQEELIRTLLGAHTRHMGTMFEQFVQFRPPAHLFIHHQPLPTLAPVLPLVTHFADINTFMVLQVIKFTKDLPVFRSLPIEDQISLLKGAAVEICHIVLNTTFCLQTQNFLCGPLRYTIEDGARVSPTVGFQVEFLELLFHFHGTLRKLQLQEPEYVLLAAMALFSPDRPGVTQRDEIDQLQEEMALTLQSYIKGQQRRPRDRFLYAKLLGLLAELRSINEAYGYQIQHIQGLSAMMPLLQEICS
Assay: qHTS assay to identify small molecule agonists of the constitutive androstane receptor (CAR) signaling pathway (AID 1224839);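 also: HepG2 cells stably carrying human CAR and a CYP2B6 luciferase reporter; nearly all actives have a fitted effect of over 15% in size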
Conditions: HepG2 hCAR CYP2B6-luciferase, agonist mode, 24 h; series mostly up to 92.4 µM
Records with an inconclusive call do not appear. Active and inactive are the calls of the source. Calls come from the whole dose curve; as a rule, active = well fitted activation curve with a large enough effect in the repeat runs; inconclusive = weak or mixed curves; inactive = no such curve, though single readings can be large or run the other way.
property_measured: outcome

Consider the following illustrative entries.
{"columns": ["compound", "outcome"],
 "data": [
  ["CCOC(=O)CC(SP(=O)(OC)OC)C(=O)OCC (centres undefined)", "inactive"],
  ["Sc1ccccc1", "inactive"],
  ["Nc1cccc(Cl)c1", "inactive"],
  ["CNC(=O)O/N=C/C(C)(C)S(C)(=O)=O", "inactive"],
  ["CCOP(=S)(OCC)Oc1cc(C)nc(C(C)C)n1", "inactive"],
  ["C=CCN=C=S", "inactive"],
  ["FC(F)(F)c1ccc(Cl)cc1", "inactive"],
  ["CCSC(=O)N1CCCCCC1", "inactive"],
  ["C=CC(=O)OCC(CC)CCCC (centres undefined)", "inactive"],
  ["CNCC(O)c1ccc(O)cc1 (centres undefined)", "inactive"]
]}

We now examine a further compound.
Task item: Given O=C(O)C1C(C(=O)O)C2(Cl)C(Cl)=C(Cl)C1(Cl)C2(Cl)Cl (centres undefined) , report its outcome on Nuclear receptor subfamily 1 group I member 3 (Homo sapiens) (UniProt Q14994).
Reply: inactive

---

Test: qHTS assay to test for compound auto fluorescence at 460 nm (blue) in HepG2 cells (AID 720687)
Conditions: autofluorescence 405/460 nm, 1 h; series mostly up to 91.3 µM
Calls of active or inactive are those of the source. Calls follow the shape of the dose curve; as a rule, active = well fitted curve in the direction sought with a large enough effect in the repeat runs; inconclusive = weak or mixed curves; inactive = flat fitted curve, though single readings scatter.
property_measured: outcome

Consider the following illustrative entries.
{"columns": ["molecule", "outcome"],
 "data": [
  ["COc1nc(NC(C)C)nc(NC(C)C)n1", "inactive"],
  ["Cc1ccccc1N", "inactive"],
  ["OC[C@@H](O)[C@H]1O[C@@H]2O[C@H](C(Cl)(Cl)Cl)O[C@@H]2[C@H]1O", "inactive"],
  ["Nc1nc(N)nc(NC2CC2)n1", "inactive"],
  ["O=C(O)Cc1ccccc1", "inactive"]
]}

We now examine a further molecule.
Task item: Look up outcome of O=P1(NCCCl)OCCCN1CCCl (centres undefined) and report it.
Reply: inactive

---

Target: Cytochrome P450 2C19 (Homo sapiens)
Experiment: Cytochrome P450 Family 2 Subfamily C Member 19 (CYP2C19) small molecule antagonists: luciferase reporter qHTS assay (AID 1671197); also: nearly all actives have a fitted effect of over 65% in size
Conditions: P450-Glo CYP2C19 enzyme, luciferin luminescence, 1 h; series mostly up to 115 µM
Records with an inconclusive call do not appear. Activity calls are given as the source filed them. Calls follow the shape of the dose curve; as a rule, active = well fitted inhibition curve with a large enough effect in the repeat runs; inconclusive = weak or mixed curves; inactive = no such curve, though single readings can be large or run the other way.
Respond only with the outcome that fits, drawn from YES (active), NO (inactive)

Task item: Tell me the assay call for CC(=O)/C=C/c1ccccc1 please.
Reply: YES

Task item: Tell me the assay call for CC(C)CCCCCCOC(=O)c1ccccc1C(=O)OCCCCCCC(C)C please.
Reply: YES

Task item: Tell me the assay call for CCOC(=O)CC(SP(=O)(OC)OC)C(=O)OCC (centres undefined) please.
Reply: YES

Task item: Tell me the assay call for CCSC(=O)N1CCCCCC1 please.
Reply: YES

Task item: Tell me the assay call for CSc1nnc(C(C)(C)C)c(=O)n1N please.
Reply: NO

Task item: Tell me the assay call for N#CN=C(N)N please.
Reply: NO

Task item: Tell me the assay call for O=C(O)C1C(C(=O)O)C2(Cl)C(Cl)=C(Cl)C1(Cl)C2(Cl)Cl (centres undefined) please.
Reply: NO

Task item: Tell me the assay call for COC(=O)Nc1cccc(OC(=O)Nc2cccc(C)c2)c1 please.
Reply: YES

Task item: Tell me the assay call for O=C(O)Cc1ccccc1 please.
Reply: NO

Task item: Tell me the assay call for CN(C)C(=O)Nc1cccc(C(F)(F)F)c1 please.
Reply: NO

Task item: Tell me the assay call for Clc1cnc(Oc2ccc(Oc3ncc(Cl)cc3Cl)cc2)c(Cl)c1 please.
Reply: NO

Task item: Tell me the assay call for O=C(O)CCCc1ccc(N(CCCl)CCCl)cc1 please.
Reply: NO

Task item: Tell me the assay call for O=S(=O)(O)OOS(=O)(=O)O please.
Reply: NO

Task item: Tell me the assay call for CN(C)C(=O)C(c1ccccc1)c1ccccc1 please.
Reply: YES
